Known pKd of a selection of binders
measurementTarget: T1, cynomolgus monkey latent myostatin (cynomolgus monkey, UniProt Q95J86 25-266; Q95J86 267-375, limits assumed)
T1 construct: also called cyno latent myostatin
T1 sequence 1: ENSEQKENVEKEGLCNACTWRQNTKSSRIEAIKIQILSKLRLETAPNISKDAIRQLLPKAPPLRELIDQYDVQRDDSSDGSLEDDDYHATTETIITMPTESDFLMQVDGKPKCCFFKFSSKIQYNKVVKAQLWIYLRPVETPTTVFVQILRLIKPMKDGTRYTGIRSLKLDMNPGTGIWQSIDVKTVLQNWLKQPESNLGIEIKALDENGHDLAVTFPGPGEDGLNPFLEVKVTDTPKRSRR
T1 sequence 2: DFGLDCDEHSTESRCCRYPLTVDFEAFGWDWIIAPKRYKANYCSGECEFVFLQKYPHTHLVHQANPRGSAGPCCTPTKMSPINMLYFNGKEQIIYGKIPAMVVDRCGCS
assaySummary: SPR 37C pH5.8; pH 5.8
Keep it numeric: pKd is minus log10 of the concentration in mol/L.

MS_M103205H1047-SG1/M103202L889-SK1 (antibody, human IgG1, kappa, V domains shown, also called MS1032LO11-SG1) VH: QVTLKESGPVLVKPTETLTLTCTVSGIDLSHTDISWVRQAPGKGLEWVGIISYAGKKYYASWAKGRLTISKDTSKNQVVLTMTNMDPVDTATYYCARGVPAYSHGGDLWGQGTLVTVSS VL: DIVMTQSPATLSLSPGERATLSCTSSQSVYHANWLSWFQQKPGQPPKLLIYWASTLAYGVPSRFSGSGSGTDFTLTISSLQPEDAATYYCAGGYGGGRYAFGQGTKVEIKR | 7.36

Exercise: Consider the binder MS_M103205H1057-SG1/M103202L889-SK1 (antibody, human IgG1, kappa, V domains shown, also called MS1032LO12-SG1) VH: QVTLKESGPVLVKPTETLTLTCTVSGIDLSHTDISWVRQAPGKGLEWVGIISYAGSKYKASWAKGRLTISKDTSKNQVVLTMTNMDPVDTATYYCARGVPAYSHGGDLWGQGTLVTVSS VL: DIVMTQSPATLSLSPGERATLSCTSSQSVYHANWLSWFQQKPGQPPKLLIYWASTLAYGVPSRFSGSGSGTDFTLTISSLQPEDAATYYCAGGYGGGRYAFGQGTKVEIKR and give its recorded pKd.
Solution: 7.45

Exercise: Consider the binder MS_M103240H1246-SG1/M103202L1045-SK1 (antibody, human IgG1, kappa, V domains shown, also called MS1032LO25-SG1) VH: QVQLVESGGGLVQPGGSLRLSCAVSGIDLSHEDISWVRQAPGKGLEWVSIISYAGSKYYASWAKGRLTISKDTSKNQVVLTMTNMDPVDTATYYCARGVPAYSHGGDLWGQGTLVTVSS VL: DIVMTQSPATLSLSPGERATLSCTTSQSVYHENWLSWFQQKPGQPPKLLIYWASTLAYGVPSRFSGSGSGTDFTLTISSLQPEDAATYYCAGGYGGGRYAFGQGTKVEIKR and give its recorded pKd.
Solution: 7.85

Exercise: Consider the binder MS_M103245H1233-SG1/M103202L1045-SK1 (antibody, human IgG1, kappa, V domains shown, also called MS1032LO23-SG1) VH: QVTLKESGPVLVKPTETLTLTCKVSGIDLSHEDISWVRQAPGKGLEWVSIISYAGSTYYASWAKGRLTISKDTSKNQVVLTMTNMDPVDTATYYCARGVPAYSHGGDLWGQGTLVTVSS VL: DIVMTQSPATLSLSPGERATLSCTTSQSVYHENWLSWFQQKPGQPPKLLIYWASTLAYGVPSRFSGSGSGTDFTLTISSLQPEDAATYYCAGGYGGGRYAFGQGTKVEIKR and give its recorded pKd.
Solution: 8.11

Exercise: Consider the binder MS_M103245H795-SG1/M103202L1045-SK1 (antibody, human IgG1, kappa, V domains shown, also called MS1032LO21-SG1) VH: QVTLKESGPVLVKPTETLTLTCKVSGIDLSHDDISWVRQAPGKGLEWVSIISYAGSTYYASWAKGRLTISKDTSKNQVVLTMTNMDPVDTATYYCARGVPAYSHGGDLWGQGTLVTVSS VL: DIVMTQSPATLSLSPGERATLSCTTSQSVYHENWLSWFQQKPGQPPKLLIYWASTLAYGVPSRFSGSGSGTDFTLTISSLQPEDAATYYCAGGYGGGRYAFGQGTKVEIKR and give its recorded pKd.
Solution: 7.51

Exercise: Consider the binder MS_M103205H1186-SG1/M103202L889-SK1 (antibody, human IgG1, kappa, V domains shown, also called MS1032LO18-SG1) VH: QVTLKESGPVLVKPTETLTLTCTVSGIDLSHDDISWVRQAPGKGLEWVGIISYAGKKYYASWAKGRLTISKDTSKNQVVLTMTNMDPVDTATYYCARGVPAYSHGGDLWGQGTLVTVSS VL: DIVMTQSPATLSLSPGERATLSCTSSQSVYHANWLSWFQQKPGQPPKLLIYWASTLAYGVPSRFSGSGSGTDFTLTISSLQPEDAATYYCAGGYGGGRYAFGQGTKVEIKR and give its recorded pKd.
Solution: 7.09

# credit: patent EP4755449A2
